The values you see were collected from BigSolDB 2.1.

# condition_summary: in n-pentanol, 288.15 K
observed_property: solubility (mole fraction)
The response must contain the number and no unit.

Problem: I am curious: what solubility (mole fraction) value has been reported for CCOC(=O)C1=C(C)NC(C)=C(C(=O)OCC)C1 ?
Result: 0.00169

* * *

# condition_summary: in acetonitrile, 313.15 K
observed_property: solubility (mole fraction)
The response must contain the number and no unit.

Problem: I am curious: what solubility (mole fraction) value has been reported for CCOC(=O)C1=C(C)NC(C)=C(C(=O)OCC)C1 ?
Result: 0.00291

* * *

# condition_summary: in methyl acetate, 293.15 K
observed_property: solubility (mole fraction)

Problem: I am curious: what solubility (mole fraction) value has been reported for CCOC(=O)C1=C(C)NC(C)=C(C(=O)OCC)C1 ?
Result: 0.00326

* * *

# condition_summary: in isopentanol, 272.15 K
observed_property: solubility (mole fraction)
The response must contain the number and no unit.

Problem: I am curious: what solubility (mole fraction) value has been reported for CCOC(=O)C1=C(C)NC(C)=C(C(=O)OCC)C1 ?
Result: 0.000677

* * *

# condition_summary: in 2-pentanone, 278.15 K
observed_property: solubility (mole fraction)
The response must contain the number and no unit.

Problem: I am curious: what solubility (mole fraction) value has been reported for CCOC(=O)C1=C(C)NC(C)=C(C(=O)OCC)C1 ?
Result: 0.00255

* * *

# condition_summary: in toluene, 283.15 K
observed_property: solubility (mole fraction)
The response must contain the number and no unit.

Problem: I am curious: what solubility (mole fraction) value has been reported for CCOC(=O)C1=C(C)NC(C)=C(C(=O)OCC)C1 ?
Result: 0.000323

* * *

# condition_summary: in ethyl acetate, 303.35 K
observed_property: solubility (mole fraction)
The response must contain the number and no unit.

Problem: I am curious: what solubility (mole fraction) value has been reported for CCOC(=O)C1=C(C)NC(C)=C(C(=O)OCC)C1 ?
Result: 0.00767

* * *

# condition_summary: in ethyl formate, 318.15 K
observed_property: solubility (mole fraction)
The response must contain the number and no unit.

Problem: I am curious: what solubility (mole fraction) value has been reported for CCOC(=O)C1=C(C)NC(C)=C(C(=O)OCC)C1 ?
Result: 0.00881

* * *

# condition_summary: in n-propanol, 303.15 K
observed_property: solubility (mole fraction)
The response must contain the number and no unit.

Problem: I am curious: what solubility (mole fraction) value has been reported for CCOC(=O)C1=C(C)NC(C)=C(C(=O)OCC)C1 ?
Result: 0.00296

* * *

# condition_summary: in methanol, 298.15 K
observed_property: solubility (mole fraction)

Problem: I am curious: what solubility (mole fraction) value has been reported for CCOC(=O)C1=C(C)NC(C)=C(C(=O)OCC)C1 ?
Result: 0.00114

* * *

# condition_summary: in isobutanol, 272.15 K
observed_property: solubility (mole fraction)

Problem: I am curious: what solubility (mole fraction) value has been reported for CCOC(=O)C1=C(C)NC(C)=C(C(=O)OCC)C1 ?
Result: 0.000707

* * *

# condition_summary: in ethyl formate, 308.25 K
observed_property: solubility (mole fraction)

Problem: I am curious: what solubility (mole fraction) value has been reported for CCOC(=O)C1=C(C)NC(C)=C(C(=O)OCC)C1 ?
Result: 0.00562

* * *

# condition_summary: in acetone, 278.15 K
observed_property: solubility (mole fraction)
The response must contain the number and no unit.

Problem: I am curious: what solubility (mole fraction) value has been reported for CCOC(=O)C1=C(C)NC(C)=C(C(=O)OCC)C1 ?
Result: 0.00165
